# reported IC50; entries follow
- SYSTEM NAME: Glycogen synthase kinase-3 beta (Homo sapiens)
- ASSAY EXPLANATION: lower pTau relative to total Tau in cells – cell-based, SH-SY5Y, ELISA, pTau Ser199, powder samples, dose response (AID 624057)
Activity calls are given as the source filed them. No rule for the calls is given here.
METRIC: IC50

MOLECULE: Cc1[nH]nc2c1C(c1ccccc1Cl)C1=C(CC(C)(C)CC1=O)N2 (stereo not given)
OBS VALUE: 2490 nM

MOLECULE: Cc1[nH]nc2c1[C@@H](c1ccccc1C(F)(F)F)C1=C(CC(C)(C)CC1=O)N2
OBS VALUE: 2270 nM

MOLECULE: Cc1[nH]nc2c1[C@H](c1ccccc1C(F)(F)F)C1=C(CC(C)(C)CC1=O)N2
OBS VALUE: > 35000 nM (inactive)

MOLECULE: Cc1[nH]nc2c1C(c1cccc(C(F)(F)F)c1)C1=C(CC(C)(C)CC1=O)N2 (stereo not given)
OBS VALUE: 4680 nM

MOLECULE: CSc1ccccc1C1C2=C(CC(C)(C)CC2=O)Nc2n[nH]c(C)c21 (stereo not given)
OBS VALUE: 2850 nM

MOLECULE: CC1(C)CC(=O)C2=C(C1)Nc1n[nH]c(C(F)(F)F)c1C2c1ccccc1 (stereo not given)
OBS VALUE: 510 nM

MOLECULE: COc1ccccc1C1C2=C(CC(C)(C)CC2=O)Nc2n[nH]c(C)c21 (stereo not given)
OBS VALUE: 7100 nM

MOLECULE: Cc1[nH]nc2c1C(c1cccc(C#N)c1)C1=C(CC(C)(C)CC1=O)N2 (stereo not given)
OBS VALUE: 2500 nM

MOLECULE: Cc1[nH]nc2c1C(c1ccccc1C(F)(F)F)C1=C(CC(C)(C)CC1=O)N2 (stereo not given)
OBS VALUE: 4240 nM

MOLECULE: CC1(C)CC(=O)C2=C(C1)Nc1n[nH]c(C(F)(F)F)c1C2c1ccccc1C(F)(F)F (stereo not given)
OBS VALUE: 410 nM

MOLECULE: COc1ccccc1[C@H]1C2=C(CC(C)(C)CC2=O)Nc2n[nH]c(C(F)(F)F)c21
OBS VALUE: > 35000 nM (inactive)

MOLECULE: CC1(C)CC(=O)C2=C(C1)Nc1n[nH]c(C(F)(F)F)c1C2(C)c1ccccc1 (stereo not given)
OBS VALUE: 1870 nM

MOLECULE: Cc1[nH]nc2c1C(c1cccc3nonc13)C1=C(CC(C)(C)CC1=O)N2 (stereo not given)
OBS VALUE: 2270 nM

MOLECULE: CC1(C)CC(=O)C2=C(C1)Nc1n[nH]c(C(F)(F)F)c1C2c1cccc(F)c1C(F)(F)F (stereo not given)
OBS VALUE: 1380 nM

MOLECULE: COc1ccccc1[C@@H]1C2=C(CC(C)(C)CC2=O)Nc2n[nH]c(C(F)(F)F)c21
OBS VALUE: 560 nM
